- System: KP1010 SHV-12
- test.protocol: Aztreonam potentiation (MPC@4), strain KP1010 SHV-12
- experimental.parameters: minimum BLI concentration inhibiting growth with aztreonam 4 μg/mL; tested up to 40 μg/mL

{"columns": ["compound", "target.system", "AZT MPC4 SHV-12 KP1010"],
 "data": [
  ["O=C([O-])c1c(OC(F)F)ccc2c1O[B-](O)(O)CC2.[Na+].[Na+] [Compound 56]", "KP1010 SHV-12", "X (X = MPC@4 ≤ 5 μg/mL)"],
  ["CS(=O)(=O)c1ccc2c(c1C(=O)O)OB(O)CC2 [Compound 39]", "KP1010 SHV-12", "X (X = MPC@4 ≤ 5 μg/mL)"]
]}

---

- System: KP1009 CTX-M-15
- test.protocol: Aztreonam potentiation (MPC@4), strain KP1009 CTX-M-15
- experimental.parameters: minimum BLI concentration inhibiting growth with aztreonam 4 μg/mL; tested up to 40 μg/mL

{"columns": ["structure.notation", "AZT MPC4 CTX-M-15 KP1009"],
 "data": [
  ["C#Cc1ccc2c(c1C(=O)[O-])O[B-](O)(O)CC2.[Na+].[Na+]", "X (X = MPC@4 ≤ 5 μg/mL)"],
  ["CCOc1ccc2c(c1C(=O)[O-])O[B-](O)(O)CC2.[Na+].[Na+]", "X (X = MPC@4 ≤ 5 μg/mL)"],
  ["O=C([O-])c1c(OCC#CCO)ccc2c1O[B-](O)(O)CC2.[Na+].[Na+]", "X (X = MPC@4 ≤ 5 μg/mL)"]
]}

---

- target.system: purified class A, C and D enzymes (β-lactamases) (Pseudomonas aeruginosa, UniProt P24735)
- Construct: rows headed: Ki (Pa-AmpC, NCF), uM; other: purified Pa-AmpC; nitrocefin (NCF) as reporter substrate
- Sequence (P24735 whole entry): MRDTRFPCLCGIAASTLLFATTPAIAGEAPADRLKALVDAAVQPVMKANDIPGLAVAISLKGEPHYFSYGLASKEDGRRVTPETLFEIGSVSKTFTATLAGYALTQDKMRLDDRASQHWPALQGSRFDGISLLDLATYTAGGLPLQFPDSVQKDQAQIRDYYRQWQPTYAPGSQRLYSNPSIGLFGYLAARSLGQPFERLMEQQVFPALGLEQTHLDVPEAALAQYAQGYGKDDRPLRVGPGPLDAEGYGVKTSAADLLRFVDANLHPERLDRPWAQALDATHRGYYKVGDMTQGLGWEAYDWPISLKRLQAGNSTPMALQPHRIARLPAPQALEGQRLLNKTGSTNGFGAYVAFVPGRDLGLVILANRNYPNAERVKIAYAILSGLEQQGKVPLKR
- test.protocol: biochemical
- Format: biochemical
Recorded Ki for the following compounds

Worked examples follow.
{"columns": ["structure.notation", "target.system", "Ki"],
 "data": [
  ["NCCc1cn(-c2ccc3c(c2C(=O)O)O[B-](O)(O)CC3)nn1", "purified class A, C and D enzymes (β-lactamases) (Pseudomonas aeruginosa, UniProt P24735)", "> 1000 nM"],
  ["O=C([O-])c1c(CSC2CNC2)ccc2c1O[B-](O)(O)CC2.[Na+].[Na+]", "purified class A, C and D enzymes (β-lactamases) (Pseudomonas aeruginosa, UniProt P24735)", "< 100 nM"],
  ["[2H]C1([2H])Cc2ccc(OC)c(C(=O)[O-])c2O[B-]1(O)O.[Na+].[Na+]", "purified class A, C and D enzymes (β-lactamases) (Pseudomonas aeruginosa, UniProt P24735)", "< 100 nM"]
]}

Pending compound:
Recorded result, `NCCn1cc(-c2ccc3c(c2C(=O)O)O[B-](O)(O)CC3)nn1` , Ki: 100 to 1000 nM

---

- target.system: purified class A, C and D enzymes (β-lactamases) (Klebsiella pneumoniae)
- test.protocol: biochemical
- Type: biochemical
- experimental.parameters: purified KPC-2; nitrocefin (NCF) as reporter substrate

{"columns": ["structure.notation", "Ki (KPC-2, NCF), uM"],
 "data": [
  ["COc1ccc2c(c1C(=O)[O-])O[B-](O)(O)[C@@H](CCO)C2.[Na+].[Na+]", "X (X = Ki ≤ 0.1 μM)"],
  ["N#CCOc1ccc2c(c1C(=O)O)OB(O)CC2", "X (X = Ki ≤ 0.1 μM)"],
  ["O=C([O-])c1c(O)ccc2c1O[B-](O)(O)CC2.[Na+].[Na+]", "X (X = Ki ≤ 0.1 μM)"]
]}

---

- Tested on: KP1009 CTX-M-15
- test.protocol: Aztreonam potentiation (MPC@4), strain KP1009 CTX-M-15
- experimental.parameters: minimum BLI concentration inhibiting growth with aztreonam 4 μg/mL; tested up to 40 μg/mL
measure.name: AZT MPC4 CTX-M-15 KP1009

{"columns": ["structure.notation", "val"],
 "data": [
  ["O=C([O-])c1c(OCCF)ccc2c1O[B-](O)(O)CC2.[Na+].[Na+]", "X (X = MPC@4 ≤ 5 μg/mL)"],
  ["O=C([O-])c1c(-c2ccn[nH]2)ccc2c1O[B-](O)(O)CC2.[Na+].[Na+]", "X (X = MPC@4 ≤ 5 μg/mL)"]
]}

---

Recorded Ki for the following compounds
- target.system: purified class A, C and D enzymes (β-lactamases) (UniProt P0AD64, L31Q/G234S/E235K, species not given)
- Construct: Ki (SHV-12, NCF), uM; other: purified SHV-12; nitrocefin (NCF) as reporter substrate
- test.protocol: biochemical
- Type: biochemical
- experimental.parameters: read-out: Ki (SHV-12, NCF); purified SHV-12; nitrocefin (NCF) as reporter substrate

Worked examples follow.
{"columns": ["structure.notation", "measure.name", "val"],
 "data": [
  ["COc1ccc2c(c1C(=O)[O-])O[B-](O)(O)CC2.[Na+].[Na+]", "Ki", "< 100 nM"],
  ["O=C([O-])c1c(-c2ccn[nH]2)ccc2c1O[B-](O)(O)CC2.[Na+].[Na+]", "Ki", "< 100 nM"],
  ["C#Cc1ccc2c(c1C(=O)[O-])O[B-](O)(O)CC2.[Na+].[Na+]", "Ki", "< 100 nM"],
  ["C[C@@H]1Cc2cccc(C(=O)[O-])c2O[B-]1(O)O.[Na+].[Na+]", "Ki", "100 to 1000 nM"],
  ["O=C([O-])c1c(OC(F)F)ccc2c1O[B-](O)(O)CC2.[Na+].[Na+]", "Ki", "< 100 nM"],
  ["NCCn1cc(-c2ccc3c(c2C(=O)O)O[B-](O)(O)CC3)nn1", "Ki", "100 to 1000 nM"],
  ["NCCn1cc(COc2ccc3c(c2C(=O)O)O[B-](O)(O)CC3)nn1", "Ki", "< 100 nM"]
]}

Recorded result, `O=C([O-])c1nccc2c1O[B-](O)(O)CC2.[Na+].[Na+]` , Ki: < 100 nM

---

- Tested on: ec308 SHV-5
- test.protocol: Aztreonam potentiation (MPC@4), strain ec308 SHV-5
- experimental.parameters: minimum BLI concentration inhibiting growth with aztreonam 4 μg/mL; tested up to 40 μg/mL
measure.name: AZT MPC4 SHV-5 ec308

Worked examples follow.
{"columns": ["compound", "target.system", "AZT MPC4 SHV-5 ec308"],
 "data": [
  ["CSCC(=O)NC1CB(O)Oc2c(C(=O)O)cccc21 (stereo not drawn)", "ec308 SHV-5", "X (X = MPC@4 ≤ 5 μg/mL)"],
  ["O=C(Cc1cccs1)NC1CB(O)Oc2c(C(=O)O)cccc21 (stereo not drawn)", "ec308 SHV-5", "X (X = MPC@4 ≤ 5 μg/mL)"],
  ["O=C([O-])c1c(OCC#CCN2CCC2)ccc2c1O[B-](O)(O)CC2.[Na+].[Na+]", "ec308 SHV-5", "X (X = MPC@4 ≤ 5 μg/mL)"],
  ["O=C(O)c1cccc2c1OB(O)CN2S(=O)(=O)Cc1ccccc1", "ec308 SHV-5", "Z (Z = MPC@4 > 20 μg/mL)"]
]}

Fill in: ec308 SHV-5 AZT MPC4 SHV-5 ec308 for `NCCn1cc(-c2ccc3c(c2C(=O)O)O[B-](O)(O)CC3)nn1` = Z (Z = MPC@4 > 20 μg/mL)

Fill in: ec308 SHV-5 AZT MPC4 SHV-5 ec308 for `O=C([O-])c1ccnc2c1O[B-](O)(O)CC2.[Na+].[Na+]` = Z (Z = MPC@4 > 20 μg/mL)

---

- System: PAM1032/KPC-2
- test.protocol: Biapenem potentiation MPC64 in PAM1032/KPC-2 (efflux proficient, overexpresses MexAB-OprM)
- Assay type: cell-based, Pseudomonas aeruginosa
- experimental.parameters: BLI concentration decreasing biapenem MIC 64-fold, from 32 μg/ml to 0.5 μg/ml; efflux proficient strain
measure.name: PAM1032/KPC-2 Biapenem MPC64
Just the number.

{"columns": ["molecule", "val"],
 "data": [
  ["Nc1nnc(C(=O)NC2CB(O)Oc3c(C(=O)O)cccc32)s1 (centres unmarked)", 20],
  ["CSCC(=O)NC1CB(O)Oc2c(C(=O)O)cccc21 (centres unmarked)", 20],
  ["O=C(Cc1cccs1)NC1CB(O)Oc2c(C(=O)O)cccc21 (centres unmarked)", 40]
]}

Pending molecule:
Recorded result, `O=C(O)c1cccc2c1OB(O)CC2` , PAM1032/KPC-2 Biapenem MPC64: 20

---

- Test system: ECL1002
- test.protocol: Aztreonam potentiation (MPC@4), strain ECL1002
- experimental.parameters: minimum BLI concentration inhibiting growth with aztreonam 4 μg/mL; tested up to 40 μg/mL
measure.name: AZT MPC4 ECL1002

{"columns": ["compound", "AZT MPC4 ECL1002"],
 "data": [
  ["O=C([O-])c1nccc2c1O[B-](O)(O)CC2.[Na+].[Na+] [Compound 6]", "X (X = MPC@4 ≤ 5 μg/mL)"],
  ["O=C(O)c1c(OCC2OCCO2)ccc2c1OB(O)CC2 [Compound 26]", "X (X = MPC@4 ≤ 5 μg/mL)"],
  ["O=C([O-])c1c(OC(F)F)ccc2c1O[B-](O)(O)CC2.[Na+].[Na+] [Compound 56]", "X (X = MPC@4 ≤ 5 μg/mL)"],
  ["O=C([O-])c1ccc2c(c1C(=O)[O-])O[B-](O)(O)CC2.[Na+].[Na+].[Na+] [Compound 53]", "X (X = MPC@4 ≤ 5 μg/mL)"]
]}

Recorded result, NS(=O)(=O)Nc1ccc2c(c1C(=O)[O-])O[B-](O)(O)CC2.[Na+].[Na+] [Compound 52] , AZT MPC4 ECL1002: X (X = MPC@4 ≤ 5 μg/mL)
